Target: ALK (Homo sapiens)
Construct: host or cells: baculovirus expression system
Sequence (Q9UM73 19-1620): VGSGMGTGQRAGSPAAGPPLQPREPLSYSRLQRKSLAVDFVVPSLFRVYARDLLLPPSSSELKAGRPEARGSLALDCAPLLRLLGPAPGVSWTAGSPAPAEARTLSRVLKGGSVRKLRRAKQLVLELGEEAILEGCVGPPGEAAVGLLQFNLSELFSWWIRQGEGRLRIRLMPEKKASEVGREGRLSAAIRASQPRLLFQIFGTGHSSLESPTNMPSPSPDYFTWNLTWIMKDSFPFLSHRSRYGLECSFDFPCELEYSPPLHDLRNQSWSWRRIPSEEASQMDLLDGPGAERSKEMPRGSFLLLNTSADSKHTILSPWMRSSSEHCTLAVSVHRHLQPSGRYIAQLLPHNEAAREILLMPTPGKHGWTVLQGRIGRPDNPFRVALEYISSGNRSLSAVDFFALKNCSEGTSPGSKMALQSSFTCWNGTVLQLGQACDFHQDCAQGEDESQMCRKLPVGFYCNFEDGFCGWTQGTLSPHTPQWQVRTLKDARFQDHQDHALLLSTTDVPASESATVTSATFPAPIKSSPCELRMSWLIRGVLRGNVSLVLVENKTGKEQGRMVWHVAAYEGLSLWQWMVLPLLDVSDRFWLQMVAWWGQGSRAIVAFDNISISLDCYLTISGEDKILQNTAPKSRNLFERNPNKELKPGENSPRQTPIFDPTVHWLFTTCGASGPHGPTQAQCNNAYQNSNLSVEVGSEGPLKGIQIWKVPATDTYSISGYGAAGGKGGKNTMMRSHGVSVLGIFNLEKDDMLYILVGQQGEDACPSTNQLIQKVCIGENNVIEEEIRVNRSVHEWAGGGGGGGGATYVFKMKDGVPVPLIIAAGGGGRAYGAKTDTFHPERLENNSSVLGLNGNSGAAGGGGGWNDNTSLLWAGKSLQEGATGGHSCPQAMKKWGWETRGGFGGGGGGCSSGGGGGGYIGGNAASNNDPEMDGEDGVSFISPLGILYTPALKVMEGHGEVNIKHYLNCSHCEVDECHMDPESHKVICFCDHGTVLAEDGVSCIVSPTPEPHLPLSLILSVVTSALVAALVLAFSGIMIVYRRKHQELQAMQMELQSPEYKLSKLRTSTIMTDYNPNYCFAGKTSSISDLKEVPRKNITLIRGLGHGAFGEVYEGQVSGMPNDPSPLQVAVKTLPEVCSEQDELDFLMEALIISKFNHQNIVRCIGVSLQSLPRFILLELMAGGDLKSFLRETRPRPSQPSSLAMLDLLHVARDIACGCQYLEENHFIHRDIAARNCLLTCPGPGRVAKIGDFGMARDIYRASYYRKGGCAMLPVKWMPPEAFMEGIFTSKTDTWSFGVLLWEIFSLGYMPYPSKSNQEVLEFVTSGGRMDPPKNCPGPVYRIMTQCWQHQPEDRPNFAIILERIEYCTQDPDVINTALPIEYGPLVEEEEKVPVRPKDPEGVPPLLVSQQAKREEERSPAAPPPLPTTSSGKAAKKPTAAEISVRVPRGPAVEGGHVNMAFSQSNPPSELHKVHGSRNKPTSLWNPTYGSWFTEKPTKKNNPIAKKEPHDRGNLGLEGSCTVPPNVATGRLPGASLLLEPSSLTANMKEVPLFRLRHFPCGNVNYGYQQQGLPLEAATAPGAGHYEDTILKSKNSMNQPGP
Experiment: ALK Kinase Assay (ELISA/TRF, PLC-γ substrate)
Type: biochemical
Conditions: ALK Kinase Inhibition; read-out: ALK Potency
pIC50: −log10 of the molar value.
Kindly supply the reported pIC50 values for the records listed here.

Req: pIC50 lookup needed for CN1CCN(C(=O)C2CCN(c3ccc(Nc4ncc5ccc(-c6ccccc6N(C)S(C)(=O)=O)n5n4)cc3)CC2)CC1 [Example 448] , thanks.
Resp: > 7.00

Req: pIC50 lookup needed for COc1ccccc1-c1ccc2cnc(Nc3ccc(OCCN4CCN(C)CC4)cc3)nn12 [Example 94] , thanks.
Resp: > 7.00

Req: pIC50 lookup needed for CN(C)CCNC(=O)c1ccc(-c2ccc3cnc(Nc4ccc(N5CCOCC5)cc4)nn23)cc1 [Example 52] , thanks.
Resp: 6.00 to 7.00

Req: pIC50 lookup needed for CN1CCN(c2ccc(Nc3ncc4ccc(-c5ccccc5N(C)S(C)(=O)=O)n4n3)cc2Cl)CC1 [Example 1424] , thanks.
Resp: > 7.00

Req: pIC50 lookup needed for CN1CCN(c2ccc(Nc3ncc4ccc(-c5cccc(N(C)S(C)(=O)=O)c5)n4n3)cc2)CC1 [Example 419] , thanks.
Resp: 6.00 to 7.00

Req: pIC50 lookup needed for COc1ccccc1-c1ccc2cnc(Nc3cccc(N4CCC(N5CCOCC5)CC4)c3)nn12 [Example 195] , thanks.
Resp: > 7.00

Req: pIC50 lookup needed for COc1cc2c(cc1Nc1ncc3ccc(-c4ccccc4N(C)S(C)(=O)=O)n3n1)CCC1(CCN(C[C@H](C)O)CC1)O2 [Example 1496] , thanks.
Resp: > 7.00
